- System: RSV (Long)
- assay: RSV cytopathic effect (CPE)-based viral replication assay
- Assay type: cell-based, respiratory syncytial virus (RSV)
- measurement parameters: human respiratory syncytial virus, HEp-2, 72 h, HEp-2 cells infected with RSV Long at MOI 0.015; 3 days at 37° C.; cell viability by CellTiter-Glo luminescence; read-out: EC50 (nm)
readout type: EC50 (nM)

Below: 8 compounds and their reported EC50.
| compound | assayed target | readout type | assay value |
| --- | --- | --- | --- |
| CS(=O)(=O)N1CCC(n2c(=O)n(Cc3ncc4ccccc4c3CCCCO)c3cnccc32)CC1 [Example 18c] | RSV (Long) | EC50 | 3.4 |
| CS(=O)(=O)N1CCC2(CC1)C(=O)N(Cc1ncc3cc(F)ccc3c1-c1cccnc1)c1cnccc12 [Example 2034] | RSV (Long) | EC50 | 2.6 |
| CC(C)(O)C(=O)N1CC2(C1)C(=O)N(Cc1ncc3ccccc3c1-c1cccnc1)c1ccccc12 [Example 118] | RSV (Long) | EC50 | 3.8 |
| COC(=O)N1CC2(C1)C(=O)N(Cc1ncc3ccccc3c1-c1ccc(N)nc1)c1ccccc12 [Example 104] | RSV (Long) | EC50 | 1.5 |
| COC(=O)N1CC2(C1)C(=O)N(Cc1ncc3ccccc3c1-c1ccc(F)nc1F)c1ccccc12 [Example 96] | RSV (Long) | EC50 | 2.2 |
| COC(=O)N1CC2(C1)C(=O)N(Cc1ncc3ccccc3c1-c1ccccn1)c1ccccc12 [Example 102] | RSV (Long) | EC50 | 194 |
| COC(=O)N1CCC(n2c(=O)n(Cc3ncc4cc(C#N)ccc4c3CCCCO)c3cnccc32)CC1 [Example 23b] | RSV (Long) | EC50 | 41 |
| CN(C)C(=O)c1ccc(-c2c(CN3C(=O)C4(CCN(C(=O)C5(N)CC5)CC4)c4ccncc43)ncc3ccccc23)cn1 [Example 120] | RSV (Long) | EC50 | 4.7 |

P: COC(=O)N1CC2(C1)C(=O)N(Cc1ncc3ccccc3c1-c1ccc(NS(C)(=O)=O)nc1)c1cnccc12 [Example 167d]
Q: COC(=O)N1CC2(C1)C(=O)N(Cc1ncc3ccccc3c1-c1cccnc1)c1ccccc12 [Example 92b]
R: CS(=O)(=O)N1CC2(C1)C(=O)N(Cc1ncc3ccccc3c1-c1ccc(C#N)nc1)c1ccccc12 [Example 45]
S: NC(=O)N1CC2(C1)C(=O)N(Cc1ncc3ccccc3c1-c1cccnc1)c1ccccc12 [Example 131]
T: O=C1N(Cc2ncc3ccccc3c2-c2cccnc2)c2cnccc2C12CCN(S(=O)(=O)CC(F)(F)F)CC2 [Example 139]
Q: Give the ascending ranking of the items by reported EC50. Please list each label once, in the requested order.
A: Q, S, R, P, T

1: CS(=O)(=O)Nc1ccc(-c2c(CN3C(=O)C4(CN(C(=O)C5(N)CC5)C4)c4ccccc43)ncc3ccccc23)cc1 [Example 114c]
2: CC1(n2c(=O)n(Cc3ncc4ccccc4c3CCCCO)c3cnccc32)CC1 [Example 52b]
3: O=C1N(Cc2ncc3ccccc3c2CCCCO)c2cnccc2C12CC2 [Example 49]
4: NC1(C(=O)N2CCC3(CC2)C(=O)N(Cc2ncc4ccccc4c2-c2cc[nH]c2)c2cnccc23)CC1 [Example 2031]
Q: Rank by EC50 (largest to smallest). Answer format: the labels, in the requested order.
A: 4, 3, 1, 2
(4: 120 nM, 3: 18 nM, 1: 5.5 nM, 2: 2.6 nM)

1: NC1(C(=O)N2CCC3(CC2)C(=O)N(Cc2ncc4ccccc4c2-c2cccnc2)c2cnccc23)CC1 [Example 137]
2: NC(C(=O)N1CCC2(CC1)C(=O)N(Cc1ncc3ccccc3c1-c1cncs1)c1cnccc12)C(F)(F)F (stereo not drawn) [Example 2040]
3: CS(=O)(=O)N1CCC2(CC1)C(=O)N(Cc1ncc3ccccc3c1-c1ccc(F)nc1)c1cnccc12 [Example 110b]
Q: Could you please sort these 3 entries by EC50 from high to low? // ordering of labels required in reply
A: 1, 2, 3

a: COC(=O)N1CC2(C1)C(=O)N(Cc1ncc3ccccc3c1CCCCO)c1ccccc12 [Example 28b]
b: N#Cc1ccc2c(CCCCO)c(Cn3c(=O)n(C4CC4)c4ccncc43)ncc2c1 [Example 25]
c: N[C@@H]1CCN(c2ccc3c(CCCCO)c(Cn4c(=O)n(C5CC5)c5ccncc54)ncc3c2)C1 [Example 32c]
Q: Highest EC50 first, then in falling order down to the smallest. Answer by listing the labels in the order asked for.
A: c, b, a
(c: 5800 nM, b: 280 nM, a: 6.8 nM)

1: CS(=O)(=O)N(c1ccc(-c2c(CN3C(=O)C4(CCN(C(=O)C5(C(F)(F)F)CC5)CC4)c4ccncc43)ncc3ccccc23)cn1)S(C)(=O)=O [Example 166d]
2: NC1(C(=O)N2CC3(C2)C(=O)N(Cc2ncc4ccccc4c2-c2cccnc2)c2ccccc23)CC1 [Example 147]
3: O=c1n(Cc2ncc3ccccc3c2-c2cccc(CO)c2)c2cnccc2n1C1CC1 [Example 10]
Q: # ascending order, key=EC50 // ordering of labels required in reply
A: 1, 2, 3

I: NC1(C(=O)N2CCC3(CC2)C(=O)N(Cc2ncc4ccccc4c2-c2cncc(F)c2)c2cnccc23)CC1 [Example 106c]
II: NC1(c2ccc3c(CCCCO)c(Cn4c(=O)n(C5CC5)c5ccncc54)ncc3c2)COC1 [Example 46g]
III: CS(=O)(=O)Nc1cncc(-c2c(CN3C(=O)C4(CN(C(=O)C5(N)CC5)C4)c4ccccc43)ncc3ccccc23)c1 [Example 2006]
IV: CS(=O)(=O)N1CCC2(CC1)C(=O)N(Cc1ncc3ccccc3c1-c1cccnc1)c1cnccc12 [Example 136]
Q: List items by EC50 in falling order. Provide your answer as the labels ordered per the instruction.
A: II, III, I, IV
(II: 8600 nM, III: 26 nM, I: 3.7 nM, IV: 0.8 nM)
